- ASSAY COMMENT: NCI Yeast Anticancer Drug Screen. Data for the sgs1 mgt1 strain (AID 161);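 also: 0% = growth of cultures given vehicle only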
- CONDITION NOTES: S. cerevisiae sgs1 mgt1 strain, at 50.0 µM, active compounds read high
This is part of a sample that, as a whole, favours compounds with a hit. Of some 79,000 tested, about 15% had one in any assay.
RECORDED METRIC: growth inhibition (%)
Unit % implied. Number only.

Solved entries:
{"MOLECULE": "COc1ccc2c(c1)OC1c3ccccc3OCC21 (stereo unspecified)", "growth inhibition / %": 15.8}
{"MOLECULE": "COc1ccc(NC(N)=O)cc1", "growth inhibition / %": 0.05}
{"MOLECULE": "CCCCN(C)CC(C)O (stereo unspecified)", "growth inhibition / %": -13.8}
{"MOLECULE": "COc1ccc(/C=C(\\C)C=C(C#N)C#N)cc1", "growth inhibition / %": 52}
{"MOLECULE": "CCC(=O)NCC(=O)O", "growth inhibition / %": -16.1}
{"MOLECULE": "O=C1C2=Cc3ccccc3OC2(O)Oc2cc(O)ccc21 (stereo unspecified)", "growth inhibition / %": 0.05}
{"MOLECULE": "Clc1ccc(CSc2nnc(SCc3ccc(Cl)cc3)c3[nH]cnc23)cc1", "growth inhibition / %": 20.9}
{"MOLECULE": "O=C1c2cccnc2-c2nccc3c2c1nc1ccccc13", "growth inhibition / %": 91}

Ask: So what does the record say about growth inhibition for O=S(=O)(Cc1cccs1)c1ncc(Br)cn1 ?
Result: 7.9

Ask: Given the molecule COc1cc(C(=O)C/C(CCC(=O)Nc2ccc(Cl)cc2Cl)=N/Nc2nnc(C)n2N)ccc1O , what is its reported growth inhibition?
Result: -25.6

Ask: I would be grateful if you could share the reported growth inhibition for CC(C)Oc1c(NCCO)c2cc(Cl)ccc2oc1=O .
Result: 20.5
